This collection of values is drawn from patent US10851083B2.

biological target: human PHD2181-417 (Homo sapiens (Human)); test: PHD2 enzyme activity assay ([14C]-succinic acid production); assay type: biochemical; conditions: PHD2181-417 polypeptide, HIF-1α peptide 10 μM, [5-14C]-2-oxoglutaric acid; 30 min pre-incubation; tested 10 μM to 3 nM
experimental-readout: Enzyme pIC50

[[record]]
molecule_smiles = "O=C(O)c1cnn(-c2nc3cc(NC(=O)c4ccccc4)c(Cl)cc3[nH]2)c1"
target_system = "human PHD2181-417 (Homo sapiens (Human))"
test_value = 6.6

[[record]]
molecule_smiles = "O=C(O)c1cnn(-c2nc3cc(S(=O)(=O)Cc4cccc(Cl)c4)c(Cl)cc3[nH]2)c1"
target_system = "human PHD2181-417 (Homo sapiens (Human))"
test_value = 7.6

[[record]]
molecule_smiles = "O=C(O)c1cnn(-c2nc3c(Br)cc(F)cc3[nH]2)c1"
target_system = "human PHD2181-417 (Homo sapiens (Human))"
test_value = 6.3

[[record]]
molecule_smiles = "CSc1cc2[nH]c(-n3cc(C(=O)O)cn3)nc2cc1Cl"
target_system = "human PHD2181-417 (Homo sapiens (Human))"
test_value = 7

[[record]]
molecule_smiles = "O=C(O)c1cnn(-c2nc3c(Cl)cccc3[nH]2)c1"
target_system = "human PHD2181-417 (Homo sapiens (Human))"
test_value = 6.1

[[record]]
molecule_smiles = "CCC(=O)Nc1cc2nc(-n3cc(C(=O)O)cn3)[nH]c2cc1Cl"
target_system = "human PHD2181-417 (Homo sapiens (Human))"
test_value = 6.4

[[record]]
molecule_smiles = "O=C(O)c1cnn(-c2nc3cc(NS(=O)(=O)c4ccccc4)c(Cl)cc3[nH]2)c1"
target_system = "human PHD2181-417 (Homo sapiens (Human))"
test_value = 6.8

[[record]]
molecule_smiles = "O=C(O)c1cnn(-c2nc3cc(Oc4ccccc4)c(Cl)cc3[nH]2)c1"
target_system = "human PHD2181-417 (Homo sapiens (Human))"
test_value = 6.9

[[record]]
molecule_smiles = "O=C(O)c1cnn(-c2nc3ccc4scnc4c3[nH]2)c1"
target_system = "human PHD2181-417 (Homo sapiens (Human))"
test_value = 6

[[record]]
molecule_smiles = "O=C(O)c1cnn(-c2nc3cc(S(=O)(=O)Cc4ccc(F)cc4)c(Cl)cc3[nH]2)c1"
target_system = "human PHD2181-417 (Homo sapiens (Human))"
test_value = 7.5

[[record]]
molecule_smiles = "CCCS(=O)(=O)c1cc2[nH]c(-n3cc(C(=O)O)cn3)nc2cc1C(F)(F)F"
target_system = "human PHD2181-417 (Homo sapiens (Human))"
test_value = 7.5

[[record]]
molecule_smiles = "O=C(O)c1cnn(-c2nc3cc(S(=O)(=O)c4ccc(OC(F)(F)F)cc4)c(Cl)cc3[nH]2)c1"
target_system = "human PHD2181-417 (Homo sapiens (Human))"
test_value = 7.3

[[record]]
molecule_smiles = "O=C(O)c1cnn(-c2nc3c(Cl)c(Cl)c(Cl)cc3[nH]2)c1"
target_system = "human PHD2181-417 (Homo sapiens (Human))"
test_value = 6.9

[[record]]
molecule_smiles = "CCCNc1cc2nc(-n3cc(C(=O)O)cn3)[nH]c2cc1Cl"
target_system = "human PHD2181-417 (Homo sapiens (Human))"
test_value = 6.5

[[record]]
molecule_smiles = "COc1ccc(Oc2cc3nc(-n4cc(C(=O)O)cn4)[nH]c3cc2Cl)cc1"
target_system = "human PHD2181-417 (Homo sapiens (Human))"
test_value = 7.1

[[record]]
molecule_smiles = "CCS(=O)(=O)c1cc2nc(-n3cc(C(=O)O)cn3)[nH]c2cc1C(F)(F)F"
target_system = "human PHD2181-417 (Homo sapiens (Human))"
test_value = 7.6

[[record]]
molecule_smiles = "COc1ccc(Sc2cc3nc(-n4cc(C(=O)O)cn4)[nH]c3cc2Cl)cc1"
target_system = "human PHD2181-417 (Homo sapiens (Human))"
test_value = 6.6

[[record]]
molecule_smiles = "O=C(O)c1cnn(-c2nc3cc(Oc4ccccc4)c(OC(F)(F)F)cc3[nH]2)c1"
target_system = "human PHD2181-417 (Homo sapiens (Human))"
test_value = 7.2


----------
target: human PHD2181-417 (Homo sapiens (Human), UniProt Q9GZT9); test: PHD2 enzyme activity assay ([14C]-succinic acid production); assay type: biochemical; conditions: PHD2181-417 polypeptide, HIF-1α peptide 10 μM, [5-14C]-2-oxoglutaric acid; 30 min pre-incubation; tested 10 μM to 3 nM
Sequence (Q9GZT9 181-417): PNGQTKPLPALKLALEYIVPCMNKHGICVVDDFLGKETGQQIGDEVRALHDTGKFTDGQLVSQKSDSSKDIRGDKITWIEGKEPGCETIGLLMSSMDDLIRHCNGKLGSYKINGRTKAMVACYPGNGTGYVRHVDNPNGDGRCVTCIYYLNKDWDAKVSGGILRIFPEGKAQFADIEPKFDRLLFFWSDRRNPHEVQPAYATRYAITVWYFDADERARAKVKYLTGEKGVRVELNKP
experimental-readout: Enzyme pIC50

[[record]]
compound = "CS(=O)(=O)c1cc2[nH]c(-n3cc(C(=O)O)cn3)nc2cc1F [Example 98]"
test_value = 7.3

[[record]]
compound = "O=C(O)c1cnn(-c2nc3cc(C(=O)Nc4ccccc4)ccc3[nH]2)c1 [Example 120]"
test_value = 6.9

[[record]]
compound = "O=C(O)c1cnn(-c2nc3c(Br)c(F)c(F)cc3[nH]2)c1 [Example 32]"
test_value = 6.7

[[record]]
compound = "O=C(CN1CCCCC1)Nc1cc2nc(-n3cc(C(=O)O)cn3)[nH]c2cc1Cl [Example 143]"
test_value = 6.2

[[record]]
compound = "O=C(O)c1cnn(-c2nc3cc(S(=O)(=O)CC4CCCCC4)c(Cl)cc3[nH]2)c1 [Example 175]"
test_value = 7.7

[[record]]
compound = "O=C(O)c1cnn(-c2nc3cc(OC(F)(F)F)c(Cl)cc3[nH]2)c1 [Example 113]"
test_value = 6.98

[[record]]
compound = "O=C(O)c1cnn(-c2nc3cc(SCCc4ccccc4)c(Cl)cc3[nH]2)c1 [Example 70]"
test_value = 6.7

[[record]]
compound = "O=C(O)c1cnn(-c2nc3c(ccc4ccccc43)[nH]2)c1 [Example 115]"
test_value = 6.1

[[record]]
compound = "Cc1cccc(Sc2cc3nc(-n4cc(C(=O)O)cn4)[nH]c3cc2Cl)c1 [Example 60]"
test_value = 6.9

[[record]]
compound = "O=C(O)c1cnn(-c2nc3cc(S(=O)(=O)Cc4ccccc4Cl)c(Cl)cc3[nH]2)c1 [Example 93]"
test_value = 7.5

[[record]]
compound = "COc1ccc(S(=O)(=O)c2cc3nc(-n4cc(C(=O)O)cn4)[nH]c3cc2Cl)cc1 [Example 84]"
test_value = 7.3

[[record]]
compound = "O=C(O)c1cnn(-c2nc3cc(SCc4ccccc4)c(Cl)cc3[nH]2)c1 [Example 66]"
test_value = 6.7

[[record]]
compound = "CCCS(=O)(=O)c1cc2nc(-n3cc(C(=O)O)cn3)[nH]c2cc1F [Example 157]"
test_value = 7.4

[[record]]
compound = "O=C(O)c1cnn(-c2nc3c(Cl)ncnc3[nH]2)c1 [Example 185]"
test_value = 5.3

[[record]]
compound = "CCSc1cc2nc(-n3cc(C(=O)O)cn3)[nH]c2cc1C(F)(F)F [Example 149]"
test_value = 7.3

[[record]]
compound = "O=C(O)c1cnn(-c2nc3cc4ccccc4cc3[nH]2)c1 [Example 114]"
test_value = 6.3

[[record]]
compound = "O=C(O)c1cnn(-c2nc3c(Cl)cc(Cl)cc3[nH]2)c1 [Example 34]"
test_value = 6.5


----------
target: human PHD2181-417 (Homo sapiens (Human), UniProt Q9GZT9); assay: PHD2 enzyme activity assay ([14C]-succinic acid production); assay type: biochemical; settings: PHD2181-417 polypeptide, HIF-1α peptide 10 μM, [5-14C]-2-oxoglutaric acid; 30 min pre-incubation; tested 10 μM to 3 nM;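 note: reaction ran 10 min with compound in Tris pH 7.5 buffer with catalase, DTT and ascorbate, labelled succinate freed of leftover 2-oxoglutarate by DNP precipitation, then beta counted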
experimental-readout: Enzyme pIC50

[[record]]
molecule_smiles = "O=C(O)c1cnn(-c2nc3cc(Oc4ccc(OC(F)(F)F)cc4)c(Cl)cc3[nH]2)c1"
experimental_readout = "Enzyme pIC50"
test_value = 7.4

[[record]]
molecule_smiles = "O=C(O)c1cnn(-c2nc3cc(S(=O)(=O)Cc4ccc(C(F)(F)F)cc4C(F)(F)F)c(Cl)cc3[nH]2)c1"
experimental_readout = "Enzyme pIC50"
test_value = 7.6

[[record]]
molecule_smiles = "Cc1cc(C)c(CS(=O)(=O)c2cc3nc(-n4cc(C(=O)O)cn4)[nH]c3cc2Cl)c(C)c1"
experimental_readout = "Enzyme pIC50"
test_value = 7.3

[[record]]
molecule_smiles = "CCSc1cc2nc(-n3cc(C(=O)O)cn3)[nH]c2cc1OC(F)(F)F"
experimental_readout = "Enzyme pIC50"
test_value = 7.2

[[record]]
molecule_smiles = "COc1ccc(Sc2cc3nc(-n4cc(C(=O)O)cn4)[nH]c3cc2C(F)(F)F)cc1"
experimental_readout = "Enzyme pIC50"
test_value = 7.5

[[record]]
molecule_smiles = "CC(C)Sc1cc2[nH]c(-n3cc(C(=O)O)cn3)nc2cc1OC(F)(F)F"
experimental_readout = "Enzyme pIC50"
test_value = 7

[[record]]
molecule_smiles = "O=C(O)c1cnn(-c2nc3cc(Oc4ccc(F)cc4)c(C(F)(F)F)cc3[nH]2)c1"
experimental_readout = "Enzyme pIC50"
test_value = 7.3

[[record]]
molecule_smiles = "O=C(O)c1cnn(-c2nc3cc([N+](=O)[O-])c(Cl)cc3[nH]2)c1"
experimental_readout = "Enzyme pIC50"
test_value = 7.5

